pIC50: −log10 of the molar value.
Literature compilation of pIC50 measurements on PAK3 (Homo sapiens, UniProt O75914).

Task: pIC50 for CCn1c(=O)c(-c2ccc(-c3cccnc3)cc2Cl)cc2cnc(Nc3ccc(N4CCN(C)CC4)cc3)nc21 ?
Output: > 7.30

Task: pIC50 for CN1CCN(c2ccc(Nc3ncc4cc(C#N)c(=O)n(C5CCCC5)c4n3)cc2)CC1 ?
Output: 5.71

Task: pIC50 for CCN1CCC(c2ccc(Nc3ncc4cc(-c5ccc(-c6ccc(C)nc6)cc5Cl)c(=O)n(CC)c4n3)cc2)CC1 ?
Output: > 7.30

Task: pIC50 for CCn1c(=O)c(-c2ccc(-c3noc(C)n3)cc2Cl)cc2cnc(Nc3ccc(CCN4CCOCC4)cc3)nc21 ?
Output: 6.30 to 7.30

Task: pIC50 for CCn1c(=O)c(-c2ccc(-c3cncc(C)n3)cc2Cl)cc2cnc(NC(CCO)CCO)nc21 ?
Output: 5.30 to 6.30

Task: pIC50 for Cc1ncccc1-c1ccc(-c2cc3cnc(Nc4ccc(CCN(C)C)cc4)nc3n(C)c2=O)c(Cl)c1 ?
Output: 6.30 to 7.30

Task: pIC50 for CCn1c(=O)c(-c2ccc(-c3scnc3C)cc2Cl)cc2cnc(Nc3ccc(N4CCN(C)CC4)cc3)nc21 ?
Output: > 7.30

Task: pIC50 for CCn1c(=O)c(-c2ccc(-c3cccc4[nH]ccc34)cc2Cl)cc2cnc(Nc3ccc(N4CCN(C)CC4)cc3)nc21 ?
Output: 6.30 to 7.30

----------
Literature compilation of IC50 measurements on UniProtKB O75914.

Task: Item CN1CCN(c2ccc(Nc3ncc4ccc(=O)n(Cc5c(O)cccc5Br)c4n3)cc2)CC1 with UniProtKB O75914 - IC50?
Output: < 1000 nM

Task: Item CCn1c(=O)c(-c2ccc(-c3cncnc3)cc2Cl)cc2cnc(Nc3ccc(N4CCNCC4)cc3)nc21 with UniProtKB O75914 - IC50?
Output: < 50 nM

Task: Item CCn1c(=O)c(-c2ccc(-c3cn[nH]c3)cc2Cl)cc2cnc(Nc3ccc(N4CCN(C)CC4)cc3)nc21 with UniProtKB O75914 - IC50?
Output: 50 to 500 nM

Task: Item CCn1c(=O)c(-c2ccc(-c3noc(C)n3)cc2Cl)cc2cnc(Nc3ccc(N4CCNCC4)cc3)nc21 with UniProtKB O75914 - IC50?
Output: < 50 nM

Task: Item CN(C)CCc1ccc(Nc2ncc3cc(-c4ccc(-c5cccnc5F)cc4Cl)c(=O)n(C)c3n2)cc1 with UniProtKB O75914 - IC50?
Output: < 50 nM

Task: Item CCn1c(=O)c(-c2ccc(-c3cccnc3C)nc2)cc2cnc(Nc3ccc(C4CCN(C)CC4)cc3)nc21 with UniProtKB O75914 - IC50?
Output: > 5000 nM

Task: Item CCn1c(=O)c(-c2ccc(-c3ccnc(C(=O)NC)c3)cc2Cl)cc2cnc(Nc3ccc(N4CCN(C)CC4)cc3)nc21 with UniProtKB O75914 - IC50?
Output: 50 to 500 nM

Task: Item CCn1c(=O)c(-c2ccc(-c3cnc(C)s3)cc2Cl)cc2cnc(Nc3ccc(C4CCNC4)cc3)nc21 (centres unmarked) with UniProtKB O75914 - IC50?
Output: < 50 nM

----------
Literature compilation of pIC50 measurements on PAK3 (Homo sapiens).
pIC50: −log10 of the molar value.

Task: Item CCn1c(=O)c(-c2ccc(-c3csc(C)n3)s2)cc2cnc(Nc3ccc(N4CCN(C)CC4)cc3)nc21 with PAK3 (Homo sapiens) - pIC50?
Output: < 5.30

Task: Item CCS(=O)(=O)c1ccccc1Cn1c(=O)c(-c2ccccc2Cl)cc2cnc(Nc3ccc(N4CCN(C)CC4)cc3)nc21 with PAK3 (Homo sapiens) - pIC50?
Output: > 7.30

Task: Item CCN1CCN(c2ccc(Nc3ncc4cc(-c5ccc(-c6cncnc6)cc5Cl)c(=O)n(CC)c4n3)cc2)CC1 with PAK3 (Homo sapiens) - pIC50?
Output: > 7.30

Task: Item CN1CCC(c2ccc(Nc3ncc4cc(-c5cc(-c6ccncc6)ccc5Cl)c(=O)n(C)c4n3)cc2)CC1 with PAK3 (Homo sapiens) - pIC50?
Output: < 5.30

Task: Item CCn1c(=O)c(-c2ccc(-c3ccccn3)s2)cc2cnc(Nc3ccc(N4CCN(C)CC4)cc3)nc21 with PAK3 (Homo sapiens) - pIC50?
Output: < 5.30

Task: Item CCn1c(=O)c(-c2ccc(-c3cncc(C)n3)cc2Cl)cc2cnc(Nc3ccc(C4CCN(C)CC4)cc3)nc21 with PAK3 (Homo sapiens) - pIC50?
Output: > 7.30

Task: Item CN1CCN(c2ccc(Nc3ncc4ccc(=O)n(Cc5c(Cl)cccc5-c5ccccc5)c4n3)cc2)CC1 with PAK3 (Homo sapiens) - pIC50?
Output: < 5.00

Task: Item CCN1CCC(c2ccc(Nc3ncc4cc(-c5ccc(-c6ccc(C)nc6)cc5Cl)c(=O)n(CC)c4n3)cc2F)CC1 with PAK3 (Homo sapiens) - pIC50?
Output: 6.30 to 7.30
